- assay.protocol: solvent given as SMILES
- experimental.parameters: in CCOC(C)=O
Classify as follows. Reported fluorescence lifetime greater than or equal to 4 ns: Condition met. Reported fluorescence lifetime below: Condition not met.

| compound | label.value |
| --- | --- |
| COc1ccc(C#Cc2ccc(-c3nn[nH]n3)cc2)cc1OC | Condition not met |

**Query** Test whether the compound `Nc1ccc2c(c1)C(=O)N(C13C[C@H]4C[C@@H](C1)C[C@@H](C3)C4)C2=O` records fluorescence lifetime of 4 ns or higher.
**Result** Condition met

**Query** Test whether the compound `Cc1ccccc1C1=C2C=c3c(oc4ccccc34)=[N+]2[B-](F)(F)n2c1cc1c3ccccc3oc12` records fluorescence lifetime of 4 ns or higher.
**Result** Condition met

**Query** Test whether the compound `CCN(CC)c1ccc2cc(/C(Cl)=C/C=C/C(=C(C#N)C#N)c3ccc4c(c3)c3ccccc3n4CC)c(=O)oc2c1` records fluorescence lifetime of 4 ns or higher.
**Result** Condition not met

**Query** Test whether the compound COC(=O)C(Cc1ccc2oc(-c3ccc(N(C)c4ccccc4)cc3)nc2c1)NC(=O)OC(C)(C)C (stereo not given) records fluorescence lifetime of 4 ns or higher.
**Result** Condition met

All values here come from the Deep4Chem optical property database.
